B1: KRT18 (parent)
chain: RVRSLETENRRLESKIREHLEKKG

Variants of: B1
Assay: protein stability index of a GFP-peptide fusion (GPS, HEK-293T) (PSI 1-6); higher = more stable;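 also: lentivirally expressed fusions sorted by FACS into six bins by GFP to DsRed ratio, PSI derived from sequencing read proportions per bin multiplied by bin number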
Conditions: c terminus: a fixed tail appended
Classify as follows. Reported protein stability index greater than or equal to 5: condition met. Reported protein stability index below: condition not met.

Please review the entries below; each comes with its answer.
variant_descriptor	group
V2E	condition met
R17F	condition not met
K22P	condition not met

Lookup: protein stability index >= 5 for V2C ?
Found: condition not met

Lookup: What do you get for L20H ?
Found: condition met

Lookup: What do you get for E18S ?
Found: condition not met

Lookup: What do you get for R3Q ?
Found: condition not met

Lookup: What do you get for R3I ?
Found: condition not met

Lookup: What do you get for V2M ?
Found: condition not met

Lookup: What do you get for R17N ?
Found: condition not met

Lookup: What do you get for E6R ?
Found: condition not met
